Below, each of the compounds is paired with its reported HDAC Inhibition 1 μM value.
system: HDAC activity (Mouse Liver Extract); experiment: Histone Deacetylase (HDAC) Inhibition Assay using Boc-Lys (Ac)-AMC Substrate; type: biochemical; conditions: inhibitor at 1 μM; mouse liver enzyme; in % (unit assumed)
Write the number on its own, no unit after it.

# example entries with known answers
I am curious: what HDAC Inhibition 1 μM value has been reported for Cc1ncsc1/C=C(/C(=O)NCCCCCC(=O)NO)c1cccs1 ?
77.63

Consider the compound shown here: COc1cc(/C=C(\C(=O)NCCCCCC(=O)NO)c2ccc([N+](=O)[O-])cc2)cc(OC)c1 What is its recorded HDAC Inhibition 1 μM?
65.5

Given the entry CSc1ccc(/C=C(\C(=O)NCCCCCC(=O)NO)c2ccc(C(F)(F)F)cc2)cc1 , report its measured HDAC Inhibition 1 μM.
59.26

Which value of HDAC Inhibition 1 μM has been reported for COc1cc(/C=C(\C(=O)NCCCCCC(=O)Nc2cccc(O)c2)c2ccc(F)cc2)cc(OC)c1 in the records?
−6.41

Dear colleague, I am looking for the recorded HDAC Inhibition 1 μM of the following compound: O=C(CCCCCNC(=O)/C(=C\c1ccc(F)cc1Cl)c1ccccc1)NO
72.20

// HDAC Inhibition 1 μM lookup, key: COc1cc(/C=C(\C(=O)NCCCCCC(=O)Nc2ccccc2O)c2ccc(F)cc2)cc(OC)c1
7.73

Item O=C(CCCCCNC(=O)/C(=C\c1ccc(Br)s1)c1ccc(Br)cc1)NO has what recorded HDAC Inhibition 1 μM?
53.83

Shift focus to the following entry.
For the compound shown here, O=C(CCCCCNC(=O)/C(=C\c1ccc(F)c(C(F)(F)F)c1)c1ccc([N+](=O)[O-])cc1)NO , give the reported HDAC Inhibition 1 μM.
46.1

====

test system: HCT 116 cells; test: cells; conditions: read-out: HCT116 LC50; HCT116; MTT, 48 h; tested at 0.01-100 μM; no unit in table
measure.name: CC50 (µM)
Field: numeric (µM). Do not append units.

Can you share its CC50? I mean this compound: CSc1ccc(/C=C(\C(=O)NCCCCCC(=O)NOCc2ccccc2)c2ccc(F)cc2)cc1
84

====

system: HDAC activity (Mouse Liver Extract); assay: Histone Deacetylase (HDAC) Inhibition Assay using Boc-Lys (Ac)-AMC Substrate; format: biochemical; details: inhibitor at 10 μM; mouse liver enzyme; in % (unit assumed)
measure.name: HDAC Inhibition 10 μM
// print number alone

Answered examples (2):
Data request, read-out HDAC Inhibition 10 μM, for Cc1ncsc1/C=C(\C(=O)NCCCCCC(=O)NO)c1ccc(Br)cc1
81.07

Consider the molecule CC(=O)N(O)C(=O)CCCCCNC(=O)/C(=C\c1ccc(Cl)o1)c1ccc(F)cc1 and give its measured HDAC Inhibition 10 μM.
95.25

// moving on: another record for HDAC Inhibition 10 μM
Entry CSc1ccc(/C=C(\C(=O)NCCCCCC(=O)Nc2ncc([N+](=O)[O-])s2)c2ccc(F)cc2)cc1 : reported HDAC Inhibition 10 μM = ?
2.3

====

// melting point lookup, one value per entry

Quick check: melting point of Cc1ncsc1C=C(C(=O)NCCCCCC(=O)NO)c1ccc(Cl)cc1 (stereo in doubt) ?
78.5 to 79 °C

# query: melting point of entry COc1c(F)c(F)c(/C(=C/c2ccc(F)cc2)C(=O)NCCCCCC(=O)NC(Cc2ccc(O)cc2)C(=O)NO)c(F)c1F (centres unmarked)
162.4 to 165.2 °C

Fill blank: measured melting point of the compound O=C(CCCCCNC(=O)/C(=C\c1ccc(F)c(Cl)c1)c1ccc(O)cc1)NO is ____.
100.3 to 103.9 °C
